IC50 values by entry
# Test Target: Sterol O-acyltransferase 1 (Homo sapiens, UniProt P35610)
# Sequence (P35610 whole entry): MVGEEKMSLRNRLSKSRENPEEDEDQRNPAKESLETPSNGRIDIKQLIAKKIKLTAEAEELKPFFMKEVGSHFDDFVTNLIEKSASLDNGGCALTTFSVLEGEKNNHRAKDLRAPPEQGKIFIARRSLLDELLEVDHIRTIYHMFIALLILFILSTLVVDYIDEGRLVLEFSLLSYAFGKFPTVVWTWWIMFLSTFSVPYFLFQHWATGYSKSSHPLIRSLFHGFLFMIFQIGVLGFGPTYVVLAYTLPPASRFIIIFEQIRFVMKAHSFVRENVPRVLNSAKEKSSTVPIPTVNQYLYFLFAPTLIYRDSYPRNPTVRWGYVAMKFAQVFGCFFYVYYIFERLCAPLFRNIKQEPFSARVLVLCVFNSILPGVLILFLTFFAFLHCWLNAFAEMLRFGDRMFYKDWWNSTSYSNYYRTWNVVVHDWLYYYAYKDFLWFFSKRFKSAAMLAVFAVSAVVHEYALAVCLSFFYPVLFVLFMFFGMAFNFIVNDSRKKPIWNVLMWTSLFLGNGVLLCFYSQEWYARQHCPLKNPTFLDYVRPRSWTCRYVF
# Run Description: Inhibition of ACAT-mediated esterified cholesterol accumulation in human THP1 cells exposed to acetyl-LDL during differentiation assessed as effect on foam cell formation
# Type: cell-based, THP-1
Numeric answer only, unit µM assumed.

Example results:
Compound: CCCCCCCCN1CCc2c(C)c(CC(=O)O)c(C)c(NC(=O)C(C)(C)C)c21 [PACTIMIBE]
Unit Tag: µM
Numeric Readout: 1.8

Compound: CCCCCCCCN1CC(CCC(=O)O)c2c(C)cc(C)c(NC(=O)C(C)(C)C)c21 (stereo unspecified)
Unit Tag: µM
Numeric Readout: 3.6

Next item in the queue.
Form field IC50, entry CC(C)c1cc(C(C)C)c(CC(=O)NS(=O)(=O)Oc2c(C(C)C)cccc2C(C)C)c(C(C)C)c1 [AVASIMIBE] : 1.5
